Property: pIC50; scope: individual compounds
- Study system: purified DHFR of the reference strain S. aureus ATCC 25923 (Staphylococcus aureus)
- Sequence (P0A017 whole entry): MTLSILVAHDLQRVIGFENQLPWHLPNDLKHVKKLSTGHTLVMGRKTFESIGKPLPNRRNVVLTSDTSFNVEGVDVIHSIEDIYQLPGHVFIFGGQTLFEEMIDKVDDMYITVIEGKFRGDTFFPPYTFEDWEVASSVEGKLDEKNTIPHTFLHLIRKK
- Test details: Inhibition of purified DHFR of reference strain S. aureus ATCC 25923
- Type: biochemical
Structures can show the parent of a compound that is named as a salt.
Answer as the number alone; pIC50 is minus log10 of concentration in mol/L.

> print(dat)
                                   compound  measurement.kind  reported.measurement
1  COc1ccc(Cc2cnc(N)nc2N)cc1-c1cc2c(cc1F)c(=O)c(C(=O)O)cn2C1CC1 [Example 9b, trifluoroacetate]             pIC50                  9.70

pIC50 for COc1cc(Cc2cnc(N)nc2N)cc(C#Cc2ccc3cc(C(=O)O)ccc3c2)c1OC [Example 16j, hydrochloride] is 9.05

For record Nc1ncc(Cc2cccc(-c3cc4c(cc3F)c(=O)c(C(=O)O)cn4C3CC3)c2)c(N)n1 the listed pIC50 is 8.72

Per the records, this compound ( COc1cc(Cc2cnc(N)nc2N)cc(C#Cc2ccc3c(=O)c(C(=O)O)cn(C(C)(C)C)c3c2)c1OC [Example 16ac, hydrochloride] ) has pIC50 equal to 9.05
